Source: patent US7592160B2

system: α-isomaltosylglucosaccharide-forming enzyme; assay: Transfer-acceptor specificity, enzyme of C9 strain; assay type: biochemical, Bacillus globisporus C9 strain; parameters: key: −: no saccharide-transferred product was detected through transfer reaction to acceptor; ±: a saccharide-transferred product was detected in an amount less than one percent through transfer reaction to acceptor; +: a saccharide-transferred product was detected in an amount over one percent but less than 10% through transfer reaction to acceptor; ++: a saccharide-transferred product was detected in an amount over ten percent through transfer reaction to acceptor; details: acceptor 1.6%, PINE-DEX #100 donor 4%, one unit/g donor, 30° C., pH 6.0, 24 hours
readoutLabel: Product of transferring reaction, Enzyme of C9 strain

{"columns": ["molecule", "reportedResult"],
 "data": [
  ["OC[C@H]1O[C@@H]2O[C@H]3[C@H](O)[C@@H](O)[C@@H](O[C@H]4[C@H](O)[C@@H](O)[C@@H](O[C@H]5[C@H](O)[C@@H](O)[C@@H](O[C@H]6[C@H](O)[C@@H](O)[C@@H](O[C@H]7[C@H](O)[C@@H](O)[C@@H](O[C@H]8[C@H](O)[C@@H](O)[C@@H](O[C@H]9[C@H](O)[C@@H](O)[C@@H](O[C@H]1[C@H](O)[C@H]2O)O[C@@H]9CO)O[C@@H]8CO)O[C@@H]7CO)O[C@@H]6CO)O[C@@H]5CO)O[C@@H]4CO)O[C@@H]3CO [γ-Cyclodextrin, γ-cyclodextrin]", "−"],
  ["C[C@H](O)[C@H](O)[C@@H](O)[C@@H](O)C=O [L-Rhamnose, L-rhamnose]", "−"]
]}

----------
system: α-isomaltosyl-transferring enzyme; experiment: Influence of metal ions on α-isomaltosyl-transferring enzyme activity (C11 strain); type: biochemical, Bacillus globisporus C11 strain; settings: in the presence of 1 mM of each metal-ion; None = 100
// class assignment uses Relative activity (%) with these ranges: bottom end: < 80%; midrange: ≥ 80% and < 90%; top end: ≥ 90%

{"columns": ["smilesString", "labelValue"],
 "data": [
  ["[Pb+2]", "bottom end"],
  ["O=C(O)CN(CCN(CC(=O)O)CC(=O)O)CC(=O)O", "top end"],
  ["[Hg+2]", "bottom end"],
  ["[Sr+2]", "top end"],
  ["[Zn+2]", "midrange"],
  ["[Cu+2]", "bottom end"]
]}

----------
Reported values of Relative activity (%) for individual entries
test system: α-isomaltosyl-transferring enzyme; test: Influence of metal ions on α-isomaltosyl-transferring enzyme activity (S1 strain); type: biochemical, Arthrobacter ramosus S1 strain; conditions: in the presence of 1 mM of each metal-ion; None = 100

{"columns": ["smilesString", "Relative activity (%)"],
 "data": [
  ["[Ni+2]", "87%"],
  ["O=C(O)CN(CCN(CC(=O)O)CC(=O)O)CC(=O)O", "91%"],
  ["[Zn+2]", "78%"],
  ["[Hg+2]", "0.1%"],
  ["[Pb+2]", "85%"],
  ["[Ca+2]", "103%"],
  ["[Cu+2]", "2%"],
  ["[Ba+2]", "97%"],
  ["[Al+3]", "93%"],
  ["[Sr+2]", "101%"],
  ["[Co+2]", "91%"]
]}

----------
tested on: α-isomaltosylglucosaccharide-forming enzyme; assay: Influence of metal ions on α-isomaltosylglucosaccharide-forming enzyme activity (C11 strain); format: biochemical, Bacillus globisporus C11 strain; conditions: 1 mM; Table 7

{"columns": ["smilesString", "targetEntity", "effect on the enzyme activity, in words"],
 "data": [
  ["[Ba+2]", "α-isomaltosylglucosaccharide-forming enzyme", "also inhibited"],
  ["[Sr+2]", "α-isomaltosylglucosaccharide-forming enzyme", "also inhibited"],
  ["O=C(O)CN(CCN(CC(=O)O)CC(=O)O)CC(=O)O", "α-isomaltosylglucosaccharide-forming enzyme", "strongly inhibited"],
  ["[Cu+2]", "α-isomaltosylglucosaccharide-forming enzyme", "strongly inhibited"],
  ["[Ca+2]", "α-isomaltosylglucosaccharide-forming enzyme", "activated"],
  ["[Mn+2]", "α-isomaltosylglucosaccharide-forming enzyme", "activated"],
  ["[Hg+2]", "α-isomaltosylglucosaccharide-forming enzyme", "strongly inhibited"]
]}
